Origin of measurements: ChEMBL document CHEMBL1136020

tested on: A2780; experiment: Tested for the cytotoxicity in A2780 ovarian cell line; format: functional, cell-based; conditions: Homo sapiens
Recorded IC50 for the following compounds
Entry rule: numbers only, all in nM.

COc1cc2c(cc1OC)N(C(=O)OCCS(=O)(=O)c1ccccc1)[C@@H](O)[C@@H]1CCCN1C2=O: 480

# context switch: different compound, same IC50
What value of measured IC50 is listed for COc1cc2c(cc1OC)C(=O)N1CCC[C@H]1C=N2 ?
64
